Taken from patent US7795261B2.

target: NK1 (Homo sapiens); assay: Signal transduction (ST), intracellular Ca++ (FLIPR), NK1 antagonistic activity; format: cell-based; conditions: read-out: pIC50 NK1 (converted)
Sequence (P25103 whole entry): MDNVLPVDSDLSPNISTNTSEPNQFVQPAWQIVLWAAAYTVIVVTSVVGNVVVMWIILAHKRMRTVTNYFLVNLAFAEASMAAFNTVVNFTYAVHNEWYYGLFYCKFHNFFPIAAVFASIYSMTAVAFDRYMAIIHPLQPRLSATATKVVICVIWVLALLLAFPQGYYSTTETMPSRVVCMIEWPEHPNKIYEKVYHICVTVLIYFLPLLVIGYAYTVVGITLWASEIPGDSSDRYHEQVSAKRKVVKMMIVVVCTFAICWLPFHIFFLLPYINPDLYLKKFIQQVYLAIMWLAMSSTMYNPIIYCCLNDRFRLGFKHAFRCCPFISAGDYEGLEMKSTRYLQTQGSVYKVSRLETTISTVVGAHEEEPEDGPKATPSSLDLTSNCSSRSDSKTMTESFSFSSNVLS
measure_name: IC50 (nM)
Write down the numeric answer in nM and omit the unit.

In the examples that follow, each entry is paired with its recorded IC50.
molecule	reported_value
O=C(c1cnc2ccccc2n1)N1CCC(N2CCN([C@H]3CCN(C(=O)c4cc(C(F)(F)F)cc(C(F)(F)F)c4)[C@H](Cc4ccccc4)C3)CC2)C1 (stereo partly drawn)	31.6
O=C(c1ccccc1Cl)N1CCC(N2CCN(C3CCN(C(=O)c4cc(C(F)(F)F)cc(C(F)(F)F)c4)C(Cc4ccc(F)cc4)C3)CC2)C1 (stereo not drawn)	15.8
COCCOCC(=O)N1CCC(N2CCN([C@H]3CCN(C(=O)c4cc(C(F)(F)F)cc(C(F)(F)F)c4)[C@H](Cc4ccccc4)C3)CC2)C1 (stereo partly drawn)	20
Cc1nnsc1C(=O)N1CCC(N2CCN(C3CCN(C(=O)c4cc(C(F)(F)F)cc(C(F)(F)F)c4)C(Cc4ccc(F)c(F)c4)C3)CC2)C1 (single isomer, unassigned) [Compound 253]	5.01
O=C(C1CCCNC1)N1CCC(N2CCN([C@H]3CCN(C(=O)c4cc(C(F)(F)F)cc(C(F)(F)F)c4)[C@H](Cc4ccccc4)C3)CC2)C1 (stereo partly drawn)	31.6

// moving on: another record for IC50
Q. GET /values?readout=IC50&system=NK1 (Homo sapiens)&item= O=C(C1CCOC1)N1CCC(N2CCN(C3CCN(C(=O)c4cc(C(F)(F)F)cc(C(F)(F)F)c4)C(Cc4ccc(F)c(F)c4)C3)CC2)C1 (single isomer, unassigned) [Compound 242]
A. 10

* * *

target: NK3 (Homo sapiens); experiment: Signal transduction (ST), intracellular Ca++ (FLIPR), NK3; type: cell-based; details: read-out: pIC50 NK3 (converted)
measure_name: IC50 (nM)
Hi! Could you send only the number? It should be in nM, unit omitted.

Examples with their reported IC50 follow.
compound	IC50 (nM)
O=C(c1c[nH]c2ccccc12)N1CCC(N2CCN([C@H]3CCN(C(=O)c4cc(C(F)(F)F)cc(C(F)(F)F)c4)[C@H](Cc4ccccc4)C3)CC2)C1 (stereo partly drawn) [Compound 56]	126
Cc1cc(C(=O)N2CCC(N3CCN([C@H]4CCN(C(=O)c5cc(C(F)(F)F)cc(C(F)(F)F)c5)[C@H](Cc5ccccc5)C4)CC3)C2)no1 (stereo partly drawn) [Compound 46]	1260

Proceeding to the next compound to report its IC50.
Q. Reported IC50 for O=C(c1cccs1)N1CC[C@@H](N2CCN([C@H]3CCN(C(=O)c4cc(C(F)(F)F)cc(C(F)(F)F)c4)[C@H](Cc4ccc(Cl)c(Cl)c4)C3)CC2)C1 [Compound 264] : what is it?
A. 200

* * *

Biological target: NK3 (Homo sapiens)
Sequence (P29371 1-465): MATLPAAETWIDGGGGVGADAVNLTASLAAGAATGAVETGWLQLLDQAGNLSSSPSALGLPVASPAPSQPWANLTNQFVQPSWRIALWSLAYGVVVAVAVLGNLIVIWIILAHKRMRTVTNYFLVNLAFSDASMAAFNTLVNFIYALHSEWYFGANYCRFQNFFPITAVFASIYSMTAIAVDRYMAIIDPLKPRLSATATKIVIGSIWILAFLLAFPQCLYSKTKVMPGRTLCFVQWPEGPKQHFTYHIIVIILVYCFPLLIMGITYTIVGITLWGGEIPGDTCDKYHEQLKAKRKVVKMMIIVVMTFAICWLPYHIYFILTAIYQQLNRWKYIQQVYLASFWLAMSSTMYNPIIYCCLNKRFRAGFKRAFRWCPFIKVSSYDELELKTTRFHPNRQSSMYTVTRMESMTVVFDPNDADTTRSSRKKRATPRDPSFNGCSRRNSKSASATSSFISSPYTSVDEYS
Assay: Signal transduction (ST), intracellular Ca++ (FLIPR), NK3
Format: cell-based
Settings: read-out: pIC50 NK3 (converted)
Method: [The procedure below names another target; the source lists this target under the same test.] This test evaluates in vitro functional NK1 antagonistic activity. For the measurements of intracellular Ca^++ concentrations the cells were grown on 96-well (black wall/transparent bottom) plates from Costar for 2 days until they reached confluence. […] The cells were preincubated with a concentration range of antagonists for 20 min at RT and Ca^++-signals after addition of the agonists were measured in a Fluorescence Image Plate Reader (FLIPR from Molecular Devices, Crawley, England). […]
Below, each entry is listed alongside its reported IC50.
Answer format: numeric, nM implied, no suffix.

Consider the following illustrative entries.
compound	IC50, nM
CC(C)Oc1cccc(C(=O)N2CCC(N3CCN([C@H]4CCN(C(=O)c5cc(C(F)(F)F)cc(C(F)(F)F)c5)[C@H](Cc5ccccc5)C4)CC3)C2)c1 (stereo partly drawn) [Compound 15]	2000
CC(=O)N1CCC(N2CCN([C@H]3CCN(C(=O)c4cc(C(F)(F)F)cc(C(F)(F)F)c4)[C@H](Cc4ccccc4)C3)CC2)C1 (stereo partly drawn) [Compound 198]	2510

// next item, IC50 requested
Q. So what's the measured IC50 for this one? O=C(C1CCCCN1C(=O)c1ccccc1Cl)N1CCC(N2CCN(C3CCN(C(=O)c4cc(C(F)(F)F)cc(C(F)(F)F)c4)C(Cc4ccccc4)C3)CC2)C1 (stereo not drawn) [Compound 295]
A. 316

* * *

The molecules listed here are annotated with their IC50.
Target: NK2 (Homo sapiens)
Sequence (P21452 whole entry): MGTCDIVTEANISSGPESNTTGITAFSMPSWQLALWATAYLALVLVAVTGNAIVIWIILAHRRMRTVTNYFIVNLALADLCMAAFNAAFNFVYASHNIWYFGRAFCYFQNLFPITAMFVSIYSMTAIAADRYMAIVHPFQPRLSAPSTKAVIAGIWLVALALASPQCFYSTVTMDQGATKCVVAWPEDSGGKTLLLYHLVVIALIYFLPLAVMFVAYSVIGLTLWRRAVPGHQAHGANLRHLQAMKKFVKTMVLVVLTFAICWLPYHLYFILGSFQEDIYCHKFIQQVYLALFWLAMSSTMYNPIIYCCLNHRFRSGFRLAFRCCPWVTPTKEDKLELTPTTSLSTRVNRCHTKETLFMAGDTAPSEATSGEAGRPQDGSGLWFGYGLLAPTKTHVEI
Test: Signal transduction (ST), intracellular Ca++ (FLIPR), NK2
Format: cell-based
Conditions: read-out: pIC50 NK2 (converted)
Description: [The procedure below names another target; the source lists this target under the same test.] This test evaluates in vitro functional NK1 antagonistic activity. For the measurements of intracellular Ca^++ concentrations the cells were grown on 96-well (black wall/transparent bottom) plates from Costar for 2 days until they reached confluence. […] The cells were preincubated with a concentration range of antagonists for 20 min at RT and Ca^++-signals after addition of the agonists were measured in a Fluorescence Image Plate Reader (FLIPR from Molecular Devices, Crawley, England). […]

molecule	reported_value
Cc1cc(C(=O)N2CCC(N3CCN([C@H]4CCN(C(=O)c5cc(C(F)(F)F)cc(C(F)(F)F)c5)[C@H](Cc5ccccc5)C4)CC3)C2)no1 (some centres unmarked) [Compound 46]	3980 nM

Q. Field request: IC50 | item: Cc1noc(C)c1S(=O)(=O)N1CCC(N2CCN(C3CCN(C(=O)c4cc(C(F)(F)F)cc(C(F)(F)F)c4)C(Cc4ccccc4)C3)CC2)C1 (centres unmarked) [Compound 79]
A. 1000 nM

Q. Now the same for O=C(C1CCCCC1)N1CC[C@@H](N2CCN([C@H]3CCN(C(=O)c4cc(C(F)(F)F)cc(C(F)(F)F)c4)[C@H](Cc4ccc(Cl)c(Cl)c4)C3)CC2)C1 [Compound 299]
A. 2510 nM

* * *

Readings of IC50 for the listed molecules
Molecular target: NK3 (Homo sapiens)
Sequence (P29371 1-465): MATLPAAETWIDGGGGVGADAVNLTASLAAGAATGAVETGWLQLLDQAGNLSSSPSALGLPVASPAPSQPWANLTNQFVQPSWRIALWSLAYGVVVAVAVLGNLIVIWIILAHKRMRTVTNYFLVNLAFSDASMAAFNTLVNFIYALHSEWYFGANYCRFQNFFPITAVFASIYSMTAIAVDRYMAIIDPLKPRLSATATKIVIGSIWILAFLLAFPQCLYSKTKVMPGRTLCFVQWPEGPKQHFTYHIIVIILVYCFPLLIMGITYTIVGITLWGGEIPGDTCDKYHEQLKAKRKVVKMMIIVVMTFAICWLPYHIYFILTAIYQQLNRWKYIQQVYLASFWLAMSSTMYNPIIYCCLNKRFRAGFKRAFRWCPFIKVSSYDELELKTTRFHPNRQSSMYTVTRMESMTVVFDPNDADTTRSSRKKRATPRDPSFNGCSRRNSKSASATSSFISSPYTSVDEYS
Assay: Signal transduction (ST), intracellular Ca++ (FLIPR), NK3
Format: cell-based
Conditions: read-out: pIC50 NK3 (converted)
Units required after the number.

Example results:
molecule	IC50
Cc1cc(C(=O)N2CCC(N3CCN([C@H]4CCN(C(=O)c5cc(C(F)(F)F)cc(C(F)(F)F)c5)[C@H](Cc5ccccc5)C4)CC3)C2)c(C)o1 (stereo partly drawn) [Compound 37]	2 µM
O=C(c1ccco1)N1CCC(N2CCN([C@H]3CCN(C(=O)c4cc(C(F)(F)F)cc(C(F)(F)F)c4)[C@H](Cc4ccccc4)C3)CC2)C1 (stereo partly drawn) [Compound 35]	0.2 µM

Okay, now this molecule:
Q. Returns the measured IC50 for the input molecule. Input: Cc1occc1C(=O)N1CCC(N2CCN([C@H]3CCN(C(=O)c4cc(C(F)(F)F)cc(C(F)(F)F)c4)[C@H](Cc4ccccc4)C3)CC2)C1 (stereo partly drawn) [Compound 36]
A. 0.2 µM
